Test Description: Specificity Index, Ki for human thymidylate synthase/Ki for Cryptococcus neoformans thymidylate synthase
Measured Endpoint: Ratio Ki

Please give the measured Ratio Ki for this compound: "O=C1OC(c2cc(Br)c(O)c(Br)c2)(c2cc(Br)c(O)c(Br)c2)c2cccc3cccc1c23"
1

I am curious: what Ratio Ki value has been reported for "O=C1OC(c2cc(Br)c(O)c(Br)c2)(c2cc(Br)c(O)c(Br)c2)c2c1ccc1ccccc21" ?
> 19

Reported Ratio Ki for "O=C1OC(c2ccc(O)c(Br)c2)(c2ccc(O)c(Br)c2)c2c1ccc1ccccc21" : what is it?
> 49

Requested field: Ratio Ki. Item: "O=C1OC(c2ccc(O)c(I)c2)(c2ccc(O)c(I)c2)c2c1ccc1ccccc21"
> 54

Can you share its Ratio Ki? I mean this compound: "O=C1OC(c2ccc(O)c(F)c2)(c2ccc(O)c(F)c2)c2ccc(Cl)c3cccc1c23"
> 38

Field request: Ratio Ki | item: "O=C1OC(c2ccc(O)c(Br)c2)(c2ccc(O)c(Br)c2)c2cccc3cccc1c23"
0.4

Look up Ratio Ki for this compound: O=C1OC(c2ccc(O)cc2)(c2ccc(O)c(Br)c2)c2cccc3cccc1c23 (stereo unspecified)
> 25

Ratio Ki lookup needed for "O=C1OC(c2cc(Cl)c(O)c(Cl)c2)(c2cc(Cl)c(O)c(Cl)c2)c2cccc3cccc1c23" , thanks.
2

Need Ratio Ki, item "O=C1OC(c2ccc(O)cc2)(c2ccc(O)cc2)c2c1ccc1ccccc21"
> 330

// query Ratio Ki value for entry "O=C1OC(c2ccc(O)c(Br)c2)(c2ccc(O)c(Br)c2)c2ccc(Cl)c3cccc1c23"
> 60

Reported Ratio Ki, compound "O=C1OC(c2ccc(O)c(I)c2)(c2ccc(O)c(I)c2)c2cccc3cccc1c23" : ____
> 8

---

Target Of Assay: Thymidylate synthase (Escherichia coli)
Sequence (C3SWJ7 whole entry): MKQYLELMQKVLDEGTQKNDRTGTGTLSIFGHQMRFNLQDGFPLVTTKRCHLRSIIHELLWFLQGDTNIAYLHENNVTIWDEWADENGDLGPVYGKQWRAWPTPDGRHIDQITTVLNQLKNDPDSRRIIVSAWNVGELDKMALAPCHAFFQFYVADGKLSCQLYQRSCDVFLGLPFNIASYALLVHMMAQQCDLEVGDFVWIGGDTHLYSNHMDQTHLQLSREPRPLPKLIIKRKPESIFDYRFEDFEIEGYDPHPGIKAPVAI
Test Description: Inhibition of Escherichia coli thymidylate synthase
Please go through the items and note down their pKi.
Scale: negative log10 of molar concentration, which is what pKi denotes.

Find the recorded pKi belonging to "O=C1OC(c2ccc(O)c(Br)c2)(c2ccc(O)c(Br)c2)c2ccc(Cl)c3cccc1c23" and report it.
5.39

So what does the record say about pKi for O=C1OC(c2ccc(O)cc2)(c2ccc(O)c(Br)c2)c2cccc3cccc1c23 (configuration not stated) ?
6.40

Any idea what its pKi is? The compound is "O=C1OC(c2ccc(O)cc2)(c2ccc(O)cc2)c2c1ccc1ccccc21"
5.36

// query pKi value for entry "O=C1OC(c2cc(Cl)c(O)c(Cl)c2)(c2cc(Cl)c(O)c(Cl)c2)c2cccc3cccc1c23"
5.28

Request the reported pKi associated with "O=C1OC(c2ccc(O)c(I)c2)(c2ccc(O)c(I)c2)c2c1ccc1ccccc21"
5.82

Could you tell me which pKi is on file for "O=C1OC(c2cc(Br)c(O)c(Br)c2)(c2cc(Br)c(O)c(Br)c2)c2c1ccc1ccccc21" ?
5.07

---

Please go through the items and note down their MIC.
Test system: Listeria monocytogenes
Test Description: Antibacterial activity against Listeria monocytogenes 5
Format: functional
Provide the reading as a plain figure in µg/mL.

# MIC lookup, item "O=C1OC(c2ccc(O)c(Br)c2)(c2ccc(O)c(Br)c2)c2ccc(Cl)c3cccc1c23"
5

Dear colleague, I am looking for the recorded MIC of the following compound: "O=C1OC(c2ccc(O)c(F)c2)(c2ccc(O)c(F)c2)c2ccc(Cl)c3cccc1c23"
10

Any idea what MIC was measured for "O=C1OC(c2ccc(O)c(Br)c2)(c2ccc(O)c(Br)c2)c2cccc3cccc1c23" ?
5

MIC lookup needed for "O=C1OC(c2ccc(O)c(Cl)c2)(c2ccc(O)c(Cl)c2)c2cccc3cccc1c23" , thanks.
5

Would you kindly share the measured MIC for "O=C1OC(c2cc(Br)c(O)c(Br)c2)(c2cc(Br)c(O)c(Br)c2)c2cccc3cccc1c23" ?
2.5

// MIC lookup, key: "O=C1OC(c2cc(Br)c(O)c(Br)c2)(c2cc(Br)c(O)c(Br)c2)c2c1ccc1ccccc21"
2.5

Returns the measured MIC for the input compound. Input: O=C1OC(c2ccc(O)cc2)(c2ccc(O)c(Br)c2)c2cccc3cccc1c23 (centres undefined)
10

Given the compound "O=C1OC(c2ccc(O)c(F)c2)(c2ccc(O)c(F)c2)c2ccc3ccccc3c21" , what is its reported MIC?
25

Give its MIC value. Item: O=C(O)c1cn(C2CC2)c2cc(N3CCNCC3)c(F)cc2c1=O [CIPROFLOXACIN]
2.5
